ASSAY_SYSTEM: human PRS protein (His-Avi-hEPRS (998-1512)) (Homo sapiens, UniProt P07814)
Construct: to construct His-Avi-hEPRS (998-1512) expression plasmid; His tag (N); Avi tag (N); TEV cleavage site (ENLYFQG, then S; inferred from the forward primer hEPRS-TEV-NheF) (N); made in house; host or cells: E. coli BL21(DE3)
Sequence (P07814 998-1512 limits assumed): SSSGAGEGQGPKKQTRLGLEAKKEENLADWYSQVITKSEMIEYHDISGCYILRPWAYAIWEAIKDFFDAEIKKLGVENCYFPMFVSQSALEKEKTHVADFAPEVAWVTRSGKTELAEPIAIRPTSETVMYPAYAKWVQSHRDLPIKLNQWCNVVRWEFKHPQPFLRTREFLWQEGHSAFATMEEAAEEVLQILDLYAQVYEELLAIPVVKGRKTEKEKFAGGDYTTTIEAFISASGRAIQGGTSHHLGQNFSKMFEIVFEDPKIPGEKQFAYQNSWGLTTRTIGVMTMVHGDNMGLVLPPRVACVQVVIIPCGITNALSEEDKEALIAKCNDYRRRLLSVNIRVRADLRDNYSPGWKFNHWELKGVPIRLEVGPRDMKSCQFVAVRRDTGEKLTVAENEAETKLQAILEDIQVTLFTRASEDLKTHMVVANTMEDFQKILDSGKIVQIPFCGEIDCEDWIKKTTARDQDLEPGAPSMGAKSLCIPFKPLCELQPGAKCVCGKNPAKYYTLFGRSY
TEST_SUMMARY: PRS inhibitory activity ([32P]pyrophosphate exchange enzyme assay)
Assay type: biochemical
CONDITION_INFO: 300 nM test compound; read-out: inhibitory rate (%) of PRS
MEASURE_NAME: inhibition at 0.3 µM (%)
Reply with just the number (in %).

{"MOLECULE": "Cn1cc(-c2cc(F)cc(CNC(=O)c3ncnc4nc(C5CCCC5)n(C)c34)c2)cn1", "inhibition at 0.3 µM, %": 101}

// query State the recorded inhibition at 0.3 µM for this entry: Cn1cc(-c2cc(F)cc(CNC(=O)c3nccc4nc(C5CCCC5)n(CCO)c34)c2)cn1
// result 101

// query State the recorded inhibition at 0.3 µM for this entry: Cc1cc(N2CC[C@@](C#N)(C3CC3)C2=O)cc(C(=O)NCc2cc(F)cc(-c3cnn(C)c3)c2)n1
// result 101

Hello, the source for this data is patent US10774083B2, in case you need it.
